- Assayed Target: T1, human galectin-10-His (recombinant human galectin-10 with TEV-cleavable N-terminal His-tag) (human)
- T1 construct: SEC-MALLS: dimer in solution; also called Gal10-His; humanGal10-His
- T1 chain: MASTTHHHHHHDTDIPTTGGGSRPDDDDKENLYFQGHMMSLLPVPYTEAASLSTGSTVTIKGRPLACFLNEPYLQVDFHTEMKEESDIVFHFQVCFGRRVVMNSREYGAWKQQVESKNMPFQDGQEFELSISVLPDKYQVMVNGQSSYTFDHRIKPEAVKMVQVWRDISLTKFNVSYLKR
- Assay Remarks: BLI tandem on galectin-10-His; competitor: saturating 6B06 mIgG1 (10 ug/mL)

Binder: 2F09 mouse IgG1 (antibody, V domains shown, VH on mouse IgG1 heavy chain constant domains (CH1-CH2-CH3), VL on mouse lambda light chain constant domain; also called 2F09 mIgG1) VH: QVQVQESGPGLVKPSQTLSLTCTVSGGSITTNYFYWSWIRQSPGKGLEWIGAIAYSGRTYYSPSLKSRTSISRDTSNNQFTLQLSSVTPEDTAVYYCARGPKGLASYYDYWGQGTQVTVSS VL: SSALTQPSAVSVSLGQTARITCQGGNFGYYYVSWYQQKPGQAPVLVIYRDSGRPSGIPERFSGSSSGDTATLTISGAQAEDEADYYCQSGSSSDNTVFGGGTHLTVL
binding signal (nm): 0.03 nm

Value source: patent US20190367619A1
